# assayInfo: Solubility of compound in polyethoxylated castor oil in water at approximately 1 mg incubated for 24 hrs by HPLC analysis
# Assay type: physicochemical
parameterMeasured: solubility at 24 h

Incoming: Could you please provide reported solubility at 24 h for `C#C[C@H](O)C#Cc1ccc(CCCCCCCC)cc1` ? Thanks!
Outgoing: 10.7 mM

* * *

# assayInfo: Tmax in female CD-1 mouse at 5 mg/kg, po measured for 480 mins by LC-MS/MS analysis
# Type: ADME, organism-based
# conditionInfo: in vivo
parameterMeasured: Tmax (min)
Dear colleague, please return just the value in min, with no unit written.

Incoming: # return recorded Tmax for input `C#C[C@H](O)C#Cc1ccc(CCCCCCCC)cc1`
Outgoing: 5

* * *

# assayInfo: Volume of distribution in elimination phase in female CD-1 mouse at 5 mg/kg, ip measured for 480 mins by LC-MS/MS analysis
# Type: ADME, organism-based
# conditionInfo: in vivo, read-out: Vz/F
parameterMeasured: Vd/F (L/kg)
Please reply with the bare figure in L/kg and do not write the unit itself.

Incoming: State its Vd/F for this compound: `C#C[C@H](O)C#Cc1ccc(CCCCCCCC)cc1`
Outgoing: 34.4

* * *

# assayInfo: Cmax in male CD-1 mouse at 5 mg/kg, iv measured for 480 mins by LC-MS/MS analysis
# Assay type: ADME, organism-based
# Parameters: time 480 min, dose 5 mg/kg, route iv
# conditionInfo: in vivo
parameterMeasured: Cmax
A complete answer gives the number followed by the unit.

Incoming: Read the entry `C#C[C@H](O)C#Cc1ccc(CCCCCCCC)cc1` and write its reported Cmax.
Outgoing: 7 µM

* * *

# assayInfo: Half life in male CD-1 mouse at 5 mg/kg, iv measured for 480 mins by LC-MS/MS analysis
# Assay type: ADME, organism-based
# conditionInfo: in vivo
parameterMeasured: half-life (min)
Give the quantity in min, number only.

Incoming: Indicate the recorded half-life value for this compound: `C#C[C@H](O)C#Cc1ccc(CCCCCCCC)cc1`
Outgoing: 54

* * *

# assayInfo: AUC in female CD-1 mouse at 5 mg/kg, sc measured for 480 mins by LC-MS/MS analysis
# Assay type: ADME, organism-based
# Parameters: time 480 min, dose 5 mg/kg, route sc
# conditionInfo: in vivo
parameterMeasured: AUC at 8 h (ng·h/mL)
Please give a number only; it is taken to be in ng·h/mL.

Incoming: Consider the compound `C#C[C@H](O)C#Cc1ccc(CCCCCCCC)cc1` . State its measured AUC at 8 h.
Outgoing: 123

* * *

# assayInfo: Clearance in female CD-1 mouse at 5 mg/kg, po measured for 480 mins by LC-MS/MS analysis
# Format: ADME, organism-based
# conditionInfo: in vivo
parameterMeasured: CL/F (mL/min/kg)
Express the result in mL/min/kg but write the number alone.

Incoming: Could you please provide reported CL/F for `C#C[C@H](O)C#Cc1ccc(CCCCCCCC)cc1` ? Thanks!
Outgoing: 1460
